- Target: human CD33 R69G (human) (UniProt P20138)
- Sequence (P20138 18-259 R69G): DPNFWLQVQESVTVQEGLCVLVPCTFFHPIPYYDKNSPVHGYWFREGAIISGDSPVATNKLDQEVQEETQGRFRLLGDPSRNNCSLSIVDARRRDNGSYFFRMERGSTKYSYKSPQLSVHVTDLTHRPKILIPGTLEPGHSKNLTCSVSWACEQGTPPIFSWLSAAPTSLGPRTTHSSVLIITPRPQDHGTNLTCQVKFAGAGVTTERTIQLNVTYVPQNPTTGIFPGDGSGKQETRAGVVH
- Assay Summary: SPR, Fab captured, 37C
Recorded Metric: koff (s⁻¹)
Give your result in s⁻¹ as a bare value.

// known answers, use as guide
[
  {
    "Binder": "ADI-10157 Fab (Fab, V domains shown) VH: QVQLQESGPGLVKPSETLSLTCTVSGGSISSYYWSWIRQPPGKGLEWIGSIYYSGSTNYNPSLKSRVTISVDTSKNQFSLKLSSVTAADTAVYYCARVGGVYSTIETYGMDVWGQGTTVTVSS VL: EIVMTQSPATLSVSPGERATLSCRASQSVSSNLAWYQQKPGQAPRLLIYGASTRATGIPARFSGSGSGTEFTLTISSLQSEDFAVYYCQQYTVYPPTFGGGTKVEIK",
    "Units": "s⁻¹",
    "koff": 0.0287
  },
  {
    "Binder": "ADI-11825 Fab (Fab, V domains shown) VH: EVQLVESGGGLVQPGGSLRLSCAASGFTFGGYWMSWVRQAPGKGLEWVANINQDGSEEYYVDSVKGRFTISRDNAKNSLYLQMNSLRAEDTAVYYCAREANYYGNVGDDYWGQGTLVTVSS VL: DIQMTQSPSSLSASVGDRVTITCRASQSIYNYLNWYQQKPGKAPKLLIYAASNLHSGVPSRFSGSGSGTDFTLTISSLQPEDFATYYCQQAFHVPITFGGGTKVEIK",
    "Units": "s⁻¹",
    "koff": 0.00695
  },
  {
    "Binder": "ADI-11835 Fab (Fab, V domains shown) VH: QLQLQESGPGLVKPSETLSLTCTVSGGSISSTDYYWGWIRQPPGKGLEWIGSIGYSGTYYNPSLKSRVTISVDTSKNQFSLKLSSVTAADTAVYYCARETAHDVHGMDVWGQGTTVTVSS VL: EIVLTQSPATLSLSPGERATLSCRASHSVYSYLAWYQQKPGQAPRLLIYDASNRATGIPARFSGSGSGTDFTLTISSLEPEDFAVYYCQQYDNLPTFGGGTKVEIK",
    "Units": "s⁻¹",
    "koff": 0.00205
  }
]

Could you share which koff value was measured for ADI-10161 Fab (Fab, V domains shown) VH: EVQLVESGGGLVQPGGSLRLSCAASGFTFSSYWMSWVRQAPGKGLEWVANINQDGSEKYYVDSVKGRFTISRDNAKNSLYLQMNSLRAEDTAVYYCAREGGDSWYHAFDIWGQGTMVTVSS VL: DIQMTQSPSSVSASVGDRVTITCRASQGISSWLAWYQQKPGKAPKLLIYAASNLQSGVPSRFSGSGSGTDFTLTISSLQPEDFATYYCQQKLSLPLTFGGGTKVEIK ?
0.0307

So what's the measured koff for this one? ADI-11815 Fab (Fab, V domains shown) VH: QVQLVQSGAEVKKPGASVKVSCKASGYTFGTYYMHWVRQAPGQGLEWMGIINPSRGSTVYAQKFQGRVTMTRDTSTSTVYMELSSLRSEDTAVYYCARGAGYDDEDMDVWGKGTTVTVSS VL: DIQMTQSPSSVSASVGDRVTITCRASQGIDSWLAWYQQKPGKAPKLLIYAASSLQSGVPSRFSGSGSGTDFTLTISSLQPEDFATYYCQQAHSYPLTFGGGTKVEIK
0.0013

Suppose we examine the binder ADI-11812 Fab (Fab, V domains shown) VH: QVQLVQSGAEVKKPGASVKVSCKASGYTFEIYYMHWVRQAPGQGLEWMGIINPSSGSTVYAQKFQGRVTMTRDTSTSTVYMELSSLRSEDTAVYYCARGAGYDDEDMDVWGKGTTVTVSS VL: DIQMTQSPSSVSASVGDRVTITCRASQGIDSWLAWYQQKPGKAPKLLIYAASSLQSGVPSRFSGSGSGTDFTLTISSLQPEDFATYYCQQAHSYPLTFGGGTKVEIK ; what koff value has been reported?
0.00228

Data request, read-out koff, for ADI-11826 Fab (Fab, V domains shown) VH: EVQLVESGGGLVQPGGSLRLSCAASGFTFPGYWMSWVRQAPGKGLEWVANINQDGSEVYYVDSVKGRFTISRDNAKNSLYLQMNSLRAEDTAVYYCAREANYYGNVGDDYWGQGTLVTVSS VL: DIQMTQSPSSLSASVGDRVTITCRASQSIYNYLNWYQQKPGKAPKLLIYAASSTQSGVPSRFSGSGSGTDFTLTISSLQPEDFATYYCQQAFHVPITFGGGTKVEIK
0.00723

Which koff reading was recorded for the binder ADI-11776 Fab (Fab, V domains shown) VH: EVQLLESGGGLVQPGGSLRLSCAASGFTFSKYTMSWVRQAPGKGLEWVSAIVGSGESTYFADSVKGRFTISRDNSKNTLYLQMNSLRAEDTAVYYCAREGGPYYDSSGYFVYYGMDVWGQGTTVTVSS VL: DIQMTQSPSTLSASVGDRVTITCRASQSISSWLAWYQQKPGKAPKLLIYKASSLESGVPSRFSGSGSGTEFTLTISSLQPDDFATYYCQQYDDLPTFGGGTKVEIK ?
0.000426

# query: koff of entry ADI-10159 Fab (Fab, V domains shown) VH: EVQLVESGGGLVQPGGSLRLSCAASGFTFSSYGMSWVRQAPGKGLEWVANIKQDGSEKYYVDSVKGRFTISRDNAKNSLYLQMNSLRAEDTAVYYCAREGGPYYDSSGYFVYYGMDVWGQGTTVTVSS VL: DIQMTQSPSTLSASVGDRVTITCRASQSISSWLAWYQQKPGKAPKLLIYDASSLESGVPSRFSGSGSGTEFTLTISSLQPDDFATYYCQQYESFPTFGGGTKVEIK
0.00243

So what does the record say about koff for ADI-11807 Fab (Fab, V domains shown) VH: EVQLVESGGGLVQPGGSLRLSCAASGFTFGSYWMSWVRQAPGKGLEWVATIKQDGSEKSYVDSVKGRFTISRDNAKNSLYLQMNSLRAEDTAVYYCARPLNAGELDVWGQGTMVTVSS VL: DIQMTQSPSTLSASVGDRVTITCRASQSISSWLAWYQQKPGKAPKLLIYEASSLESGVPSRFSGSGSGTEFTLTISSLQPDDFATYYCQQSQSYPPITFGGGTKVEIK ?
0.000259

// provenance: patent US20220380459A1
